assayTarget: Flag/GST-tagged recombinant human B-Raf (Homo sapiens)
Construct: Flag; GST; made in house; host or cells: Sf9 insect cells (B-Raf); E. coli (MEK1-GST)
Sequence (P15056 whole entry): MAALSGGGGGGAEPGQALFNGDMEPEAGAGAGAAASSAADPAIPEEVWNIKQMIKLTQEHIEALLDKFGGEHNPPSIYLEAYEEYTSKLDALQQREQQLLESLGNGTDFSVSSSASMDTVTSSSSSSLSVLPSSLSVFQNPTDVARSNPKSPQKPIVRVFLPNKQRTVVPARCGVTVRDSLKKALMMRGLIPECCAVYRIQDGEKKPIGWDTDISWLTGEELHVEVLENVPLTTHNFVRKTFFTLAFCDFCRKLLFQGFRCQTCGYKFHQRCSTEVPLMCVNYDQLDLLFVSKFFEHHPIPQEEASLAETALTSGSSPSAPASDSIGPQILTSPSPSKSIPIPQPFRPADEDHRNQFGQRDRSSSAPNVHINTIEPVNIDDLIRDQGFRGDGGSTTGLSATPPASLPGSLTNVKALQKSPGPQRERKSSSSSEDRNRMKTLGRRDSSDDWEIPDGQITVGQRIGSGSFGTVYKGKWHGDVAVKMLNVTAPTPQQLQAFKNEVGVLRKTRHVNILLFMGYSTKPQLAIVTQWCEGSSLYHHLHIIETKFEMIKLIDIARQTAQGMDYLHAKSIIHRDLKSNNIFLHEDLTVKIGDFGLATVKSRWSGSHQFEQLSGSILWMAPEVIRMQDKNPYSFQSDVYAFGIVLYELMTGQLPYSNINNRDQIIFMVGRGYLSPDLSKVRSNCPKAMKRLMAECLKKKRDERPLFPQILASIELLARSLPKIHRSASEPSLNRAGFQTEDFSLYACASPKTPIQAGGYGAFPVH
method: B-Raf Kinase to MEK1 ELISA
Format: biochemical
pIC50: −log10 of the molar value.
Kind request: treat 6 as inclusive, so pIC50 at 6 or higher is Condition met, anything lower is Condition not met.

| structureSmilesString | assignedClass |
| --- | --- |
| COc1ccc(C(=O)Nc2cccc(-c3ncnc4sc(-c5ccncc5)cc34)c2)cc1C(F)(F)F | Condition not met |
| CN(C)CCCn1c(-c2ccncc2)cc2c(-c3cccc(NC(=O)c4cccc(C(F)(F)F)c4)c3)ncnc21 | Condition met |
| O=C(Nc1cccc(-c2ncnc3sc(-c4ccnc(NCCN5CCOCC5)c4)cc23)c1)c1cccc(C(F)(F)F)c1 | Condition met |
| O=C(Nc1cccc(-c2ncnc3sc(-c4ccncc4)cc23)c1)c1cccc(C(F)(F)F)c1 | Condition met |
| O=C(Nc1cccc(-c2ncnc3sc(-c4ccncc4)cc23)c1)Nc1ccc(F)c(C(F)(F)F)c1 | Condition not met |
| COc1ccc(-n2ccc3c(-c4cccc(NC(=O)c5cccc(C(F)(F)F)c5)c4)ncnc32)cc1 | Condition not met |
| O=C(Nc1cccc(-c2ncnc3c2cc(-c2ccncc2)n3CCN2CCCC2)c1)c1cccc(C(F)(F)F)c1 | Condition met |
| O=C(Nc1cccc(Cl)c1)Nc1cccc(-c2ncnc3sc(-c4ccncc4)cc23)c1 | Condition not met |
| N#Cc1ccccc1Cn1ccc2c(-c3cccc(NC(=O)c4cccc(C(F)(F)F)c4)c3)ncnc21 | Condition not met |
| O=C(Nc1cccc(-c2ncnc3cc(-c4ccncc4)sc23)c1)c1cccc(C(F)(F)F)c1 | Condition met |
| O=C(Nc1cccc(-c2ncnc3sc(-c4ccncc4)cc23)c1)c1ccc(Cl)c(C(F)(F)F)c1 | Condition not met |

====

assayTarget: Flag/GST-tagged recombinant human B-Raf (Homo sapiens)
Construct: Flag; GST; made in house; host or cells: Sf9 insect cells (B-Raf); E. coli (MEK1-GST)
method: B-Raf Kinase to MEK1 ELISA
Type: biochemical
measurementConditions: phosphorylation of GST-MEK1 by B-Raf (0.2 nM), phospho-MEK1 antibody/Europium readout; compound concentrations from 1 μM to 3 nM or 0.1 μM to 300 pm in half log dilutions; read-out: IC50

| structureSmilesString | assayTarget | unitAbbrev | IC50 |
| --- | --- | --- | --- |
| O=C(Nc1cccc(-c2ncnc3[nH]c(-c4ccncc4)cc23)c1)c1cccc(C(F)(F)F)c1 | Flag/GST-tagged recombinant human B-Raf (Homo sapiens) | nM | 34.5 |
| O=C(Nc1cccc(-c2ncnc3sc(-c4ccnc(NCCCn5ccnc5)c4)cc23)c1)c1cccc(C(F)(F)F)c1 | Flag/GST-tagged recombinant human B-Raf (Homo sapiens) | nM | 158 |
| CC(=O)Nc1ccc(-c2cc3c(-c4cccc(NC(=O)c5cccc(C(F)(F)F)c5)c4)ncnc3s2)cc1 | Flag/GST-tagged recombinant human B-Raf (Homo sapiens) | nM | 872 |

====

assayTarget: Flag/GST-tagged recombinant human B-Raf (Homo sapiens)
Construct: Flag; GST; made in house; host or cells: Sf9 insect cells (B-Raf); E. coli (MEK1-GST)
method: B-Raf Kinase to MEK1 ELISA
Format: biochemical
pIC50: −log10 of the molar value.
Kind request: treat 6 as inclusive, so pIC50 at 6 or higher is Condition met, anything lower is Condition not met.

| compound | assayTarget | assignedClass |
| --- | --- | --- |
| O=C(Nc1cccc(-c2ncnc3c2ccn3-c2ccc(CN3CCNCC3)cc2)c1)c1cccc(C(F)(F)F)c1 [Compound 112] | Flag/GST-tagged recombinant human B-Raf (Homo sapiens) | Condition met |
| CN(C)c1ccc(-n2ccc3c(-c4cccc(NC(=O)c5cccc(C(F)(F)F)c5)c4)ncnc32)cc1 [Compound 107] | Flag/GST-tagged recombinant human B-Raf (Homo sapiens) | Condition not met |
| O=C(Nc1cccc(-c2ncnc3sc(-c4ccncc4)cc23)c1)c1ccc(F)c(C(F)(F)F)c1 [Compound 38] | Flag/GST-tagged recombinant human B-Raf (Homo sapiens) | Condition met |
| Cc1ccc(C(=O)Nc2cccc(-c3ncnc4sc(-c5ccncc5)cc34)c2)cc1C(F)(F)F [Compound 37] | Flag/GST-tagged recombinant human B-Raf (Homo sapiens) | Condition not met |
| CN(C)Cc1ccc(-n2ccc3c(-c4cccc(NC(=O)c5cccc(C(F)(F)F)c5)c4)ncnc32)cc1 [Compound 111] | Flag/GST-tagged recombinant human B-Raf (Homo sapiens) | Condition met |
| O=C(Nc1cccc(-c2ncnc3sc(-c4ccncc4)cc23)c1)Nc1cccc(C(F)(F)F)c1 [Compound 41] | Flag/GST-tagged recombinant human B-Raf (Homo sapiens) | Condition not met |
| COc1ccc(C(=O)Nc2cccc(-c3c(C#N)cnc4cc(-c5ccncc5)sc34)c2)cc1C(F)(F)F [Compound 7] | Flag/GST-tagged recombinant human B-Raf (Homo sapiens) | Condition not met |
